- tgt: T1, mouse IL-18 receptors on PathHunter U2OS mIL18-NF-kb reporter cells (mouse, UniProt Q61098 20-537; Q9Z2B1 20-614)
- T1 sequence (looked up) 1: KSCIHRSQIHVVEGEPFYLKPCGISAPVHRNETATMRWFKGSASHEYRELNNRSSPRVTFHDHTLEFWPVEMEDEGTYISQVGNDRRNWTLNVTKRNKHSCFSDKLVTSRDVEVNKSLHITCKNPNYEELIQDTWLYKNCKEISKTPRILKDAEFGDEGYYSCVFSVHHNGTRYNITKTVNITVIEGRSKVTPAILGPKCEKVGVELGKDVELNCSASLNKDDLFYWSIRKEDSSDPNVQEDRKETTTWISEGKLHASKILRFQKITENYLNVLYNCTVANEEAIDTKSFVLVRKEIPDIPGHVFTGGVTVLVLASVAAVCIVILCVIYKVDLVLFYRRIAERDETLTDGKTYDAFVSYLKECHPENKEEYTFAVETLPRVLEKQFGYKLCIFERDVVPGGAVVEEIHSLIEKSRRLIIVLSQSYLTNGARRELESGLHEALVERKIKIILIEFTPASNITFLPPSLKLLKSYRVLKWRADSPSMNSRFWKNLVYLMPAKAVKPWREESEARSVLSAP
- T1 sequence (looked up) 2: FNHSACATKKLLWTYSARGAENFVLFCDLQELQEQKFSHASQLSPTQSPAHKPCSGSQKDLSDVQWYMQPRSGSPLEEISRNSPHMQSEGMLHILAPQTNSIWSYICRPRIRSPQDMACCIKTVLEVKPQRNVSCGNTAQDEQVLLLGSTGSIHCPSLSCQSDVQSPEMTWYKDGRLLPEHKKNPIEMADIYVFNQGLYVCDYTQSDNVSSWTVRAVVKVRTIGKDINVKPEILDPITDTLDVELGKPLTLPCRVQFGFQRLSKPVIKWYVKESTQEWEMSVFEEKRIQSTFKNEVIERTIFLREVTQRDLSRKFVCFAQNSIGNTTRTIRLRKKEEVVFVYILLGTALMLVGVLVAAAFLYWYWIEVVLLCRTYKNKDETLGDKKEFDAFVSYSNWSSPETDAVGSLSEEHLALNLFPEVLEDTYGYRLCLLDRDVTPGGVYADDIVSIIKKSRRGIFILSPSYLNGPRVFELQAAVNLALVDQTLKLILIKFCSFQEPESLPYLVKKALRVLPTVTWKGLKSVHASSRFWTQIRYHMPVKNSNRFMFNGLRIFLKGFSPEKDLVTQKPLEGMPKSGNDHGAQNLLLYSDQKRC
- test_summary: cell-based or functional assay
mouse IL-18 reporter assay EC50, without mouse IL-18BP by entry:
quantity_measured: mouse IL-18 reporter assay EC50, without mouse IL-18BP

binder | reported_measurement
mouse IL-18 G3V, K52A on monoFc scaffold (Fc fusion, not shown: small tags and cut ends) NFVRLHSTTAVIRNINDQVLFVDKRQPVFEDMTDIDQSASEPQTRLIIYMYADSEVRGLAVTLSVKDSKMSTLSSKNKIISFEEMDPPENIDDIQSDLIFFQKRVPGHNKMEFESSLYEGHFLACQKEDDAFKLILKKKDENGDKSVMFTLTNLHQSNGGPSVFLFPPKPKDTLMISRTPEVTCVVVDVSHEDPEVKFNWYVDGVEVHNAKTKPREEQYNSTYRVVSVLTVLHQDWLNGKEYKCKVSNKALPAPIEKTISKAKGQPREPQVYTLPPSREEMTKNQVNLTCLVKGFYPSDIAVEWESNGQPENNYKTTPPVLDSDGSFFLNSTLTVDKSRWQQGNVFSCSVMHEALHNHYTQKSLSLS | 0.7 pM
Comparator 5 (ligand) HFGRLHCTTAVIRNINDQVLFVDKRQPVFEDMTDIDQSASEPQTRLIIYAYGDSRARGKAVTLSVKDSKMSTLSCKNKIISFEEMDPPENIDDIQSDLIFFQKRVPGHNKMEFESSLYEGHFLACQKEDDAFKLILKKKDENGDKSVMFTLTNLHQS | 1.49 pM
mouse IL-18 G3T, H6K, K52A on monoFc scaffold (Fc fusion, not shown: small tags and cut ends) NFTRLKSTTAVIRNINDQVLFVDKRQPVFEDMTDIDQSASEPQTRLIIYMYADSEVRGLAVTLSVKDSKMSTLSSKNKIISFEEMDPPENIDDIQSDLIFFQKRVPGHNKMEFESSLYEGHFLACQKEDDAFKLILKKKDENGDKSVMFTLTNLHQSNGGPSVFLFPPKPKDTLMISRTPEVTCVVVDVSHEDPEVKFNWYVDGVEVHNAKTKPREEQYNSTYRVVSVLTVLHQDWLNGKEYKCKVSNKALPAPIEKTISKAKGQPREPQVYTLPPSREEMTKNQVNLTCLVKGFYPSDIAVEWESNGQPENNYKTTPPVLDSDGSFFLNSTLTVDKSRWQQGNVFSCSVMHEALHNHYTQKSLSLS | 1.76 pM
mouse IL-18 G3V, H6K, K52A on monoFc scaffold (Fc fusion, not shown: small tags and cut ends) NFVRLKSTTAVIRNINDQVLFVDKRQPVFEDMTDIDQSASEPQTRLIIYMYADSEVRGLAVTLSVKDSKMSTLSSKNKIISFEEMDPPENIDDIQSDLIFFQKRVPGHNKMEFESSLYEGHFLACQKEDDAFKLILKKKDENGDKSVMFTLTNLHQSNGGPSVFLFPPKPKDTLMISRTPEVTCVVVDVSHEDPEVKFNWYVDGVEVHNAKTKPREEQYNSTYRVVSVLTVLHQDWLNGKEYKCKVSNKALPAPIEKTISKAKGQPREPQVYTLPPSREEMTKNQVNLTCLVKGFYPSDIAVEWESNGQPENNYKTTPPVLDSDGSFFLNSTLTVDKSRWQQGNVFSCSVMHEALHNHYTQKSLSLS | 0.9 pM
mouse IL-18 G3T, K52A on monoFc scaffold (Fc fusion, not shown: small tags and cut ends) NFTRLHSTTAVIRNINDQVLFVDKRQPVFEDMTDIDQSASEPQTRLIIYMYADSEVRGLAVTLSVKDSKMSTLSSKNKIISFEEMDPPENIDDIQSDLIFFQKRVPGHNKMEFESSLYEGHFLACQKEDDAFKLILKKKDENGDKSVMFTLTNLHQSNGGPSVFLFPPKPKDTLMISRTPEVTCVVVDVSHEDPEVKFNWYVDGVEVHNAKTKPREEQYNSTYRVVSVLTVLHQDWLNGKEYKCKVSNKALPAPIEKTISKAKGQPREPQVYTLPPSREEMTKNQVNLTCLVKGFYPSDIAVEWESNGQPENNYKTTPPVLDSDGSFFLNSTLTVDKSRWQQGNVFSCSVMHEALHNHYTQKSLSLS | 1.24 pM
